Value source: ChEMBL document CHEMBL3627690

system: human MDR1; assay: Efflux ratio of permeability across basolateral to apical over apical to basolateral side in MDCK cells transfected with human MDR1 at 5 uM by LC-MS/MS analysis; conditions: dog
Assay metric: efflux ratio at 5 µM

Here's what some known entries look like.
CC(C)n1nc(Nc2cc(C(F)(F)F)ccn2)cc1C1CCNCC1: 36
N#Cc1ccnc(Nc2cc(C3CCN(C4COC4)CC3)n(C3CCOCC3)n2)c1: 15
N#Cc1ccnc(Nc2cc(C3CN(C4COC4)C3)n(C3CCCC3)n2)c1: 3.3

[P] N#Cc1ccnc(Nc2cc(C3CCN(C4COC4)CC3)n(C3CCCC3)n2)c1
[Q] N#Cc1ccnc(Nc2cc(C3CCN(C4COC4)CC3)n(C3CCC(F)(F)C3)n2)c1 (racemic)
QUERY: # compare efflux ratio at 5 µM for P vs Q ; return the one with the smaller value Field: selected label. Fill in the label of the entry you choose.
RESULT: P

----------
target: Mitogen-activated protein kinase kinase kinase 11 (Homo sapiens); test: Inhibition of MLK3 (unknown origin) by FRET method
Sequence (Q16584 whole entry): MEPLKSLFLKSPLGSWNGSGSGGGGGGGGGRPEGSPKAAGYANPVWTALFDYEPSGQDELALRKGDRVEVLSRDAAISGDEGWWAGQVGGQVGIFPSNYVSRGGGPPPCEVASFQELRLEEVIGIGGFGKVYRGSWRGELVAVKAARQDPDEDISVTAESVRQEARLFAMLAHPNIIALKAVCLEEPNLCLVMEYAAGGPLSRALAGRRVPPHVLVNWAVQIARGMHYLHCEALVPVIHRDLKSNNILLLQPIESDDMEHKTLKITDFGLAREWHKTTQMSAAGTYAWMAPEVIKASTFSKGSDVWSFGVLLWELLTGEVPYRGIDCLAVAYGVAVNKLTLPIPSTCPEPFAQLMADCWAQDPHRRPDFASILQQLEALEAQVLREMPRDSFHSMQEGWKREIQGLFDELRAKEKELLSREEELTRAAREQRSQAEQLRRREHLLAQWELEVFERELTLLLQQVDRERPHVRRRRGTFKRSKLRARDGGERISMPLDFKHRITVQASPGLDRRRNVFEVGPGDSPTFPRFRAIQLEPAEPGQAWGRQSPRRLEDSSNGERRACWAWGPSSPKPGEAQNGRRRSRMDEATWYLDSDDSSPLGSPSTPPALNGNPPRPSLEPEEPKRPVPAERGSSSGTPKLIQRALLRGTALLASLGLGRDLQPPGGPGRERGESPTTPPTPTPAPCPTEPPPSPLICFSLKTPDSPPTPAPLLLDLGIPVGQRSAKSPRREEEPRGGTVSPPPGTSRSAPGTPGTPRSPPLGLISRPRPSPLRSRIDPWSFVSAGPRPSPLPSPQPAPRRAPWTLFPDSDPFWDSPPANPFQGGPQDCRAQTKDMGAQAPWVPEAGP
pIC50: −log10 of the molar value.
Assay metric: pIC50

QUERY: Which pIC50 is reported for this compound? N#Cc1ccnc(Nc2cc(C3CCN(C4COC4)CC3)n(C3CCCC3)n2)c1
RESULT: < 5.00

----------
target: Mitogen-activated protein kinase kinase kinase 12 (Homo sapiens, UniProt Q12852); assay: Inhibition of Dox inducible human DLK transfected in HEK293 cells assessed as reduction in JNK phosphorylation incubated for 5.5 hrs measured by Hoechst 33342 staining based imaging analysis
Sequence (Q12852 whole entry): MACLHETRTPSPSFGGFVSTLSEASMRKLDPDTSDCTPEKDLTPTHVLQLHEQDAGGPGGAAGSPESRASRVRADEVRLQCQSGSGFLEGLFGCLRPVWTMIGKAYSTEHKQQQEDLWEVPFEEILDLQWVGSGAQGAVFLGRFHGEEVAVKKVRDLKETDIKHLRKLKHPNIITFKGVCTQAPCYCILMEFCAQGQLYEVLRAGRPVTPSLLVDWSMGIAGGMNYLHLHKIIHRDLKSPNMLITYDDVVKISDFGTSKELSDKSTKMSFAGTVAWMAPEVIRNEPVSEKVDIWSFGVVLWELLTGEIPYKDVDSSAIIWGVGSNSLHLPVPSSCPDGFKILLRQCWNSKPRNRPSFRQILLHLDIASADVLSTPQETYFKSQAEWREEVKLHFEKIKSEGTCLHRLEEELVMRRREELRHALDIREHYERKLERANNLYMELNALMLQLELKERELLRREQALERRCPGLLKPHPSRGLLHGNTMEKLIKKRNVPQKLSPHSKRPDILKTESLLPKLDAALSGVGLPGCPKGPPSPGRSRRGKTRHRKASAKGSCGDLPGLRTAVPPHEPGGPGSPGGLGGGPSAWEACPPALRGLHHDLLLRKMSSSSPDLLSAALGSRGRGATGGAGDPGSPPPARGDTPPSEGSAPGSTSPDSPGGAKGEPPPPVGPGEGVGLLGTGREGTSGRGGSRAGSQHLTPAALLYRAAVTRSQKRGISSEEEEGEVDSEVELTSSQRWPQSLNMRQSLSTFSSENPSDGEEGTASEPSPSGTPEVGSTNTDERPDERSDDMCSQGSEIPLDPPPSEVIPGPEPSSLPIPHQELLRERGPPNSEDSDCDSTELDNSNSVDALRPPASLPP
Assay metric: IC50 (nM)

Here's what some known entries look like.
N#Cc1ccnc(Nc2cc(C3CCN(C4COC4)C3)n(C3CCCC3)n2)c1 (racemic): 632
N#Cc1ccnc(Nc2cc(C3CCOC3)n(C3CCCC3)n2)c1 (racemic): 698
N#Cc1ccnc(Nc2cc(C3CCN(C4COC4)CC3)n(C3CCC(F)(F)C3)n2)c1 (racemic): 721
N#Cc1ccnc(Nc2cc(C3CCN(C4COC4)CC3)n(CC3CCC3)n2)c1: 1400
N#Cc1ccnc(Nc2cc(C3CCN(C4COC4)CC3)n(C3CCCC3)n2)c1: 536

[P] N#Cc1ccnc(Nc2cc(C3CN(C4COC4)C3)n(C3CCCC3)n2)c1
[Q] N#Cc1ccnc(Nc2nc(C3CC3)c(C3CCN(C4COC4)CC3)s2)c1
QUERY: Compare the recorded IC50 of P and Q ; state which is larger. Field: selected label. Fill in the label of the entry you choose.
RESULT: Q
(Q: 8600 nM, P: 459 nM)

----------
test: Half life in […] rat at 0.4 or 1 mg/kg, iv and 1 or 5 mg/kg, po; type: ADME, organism-based; conditions: in vivo
Assay metric: half-life (h)
Dear colleague, please return just the value in h, with no unit written.

QUERY: Which half-life is reported for this molecule? N#Cc1ccnc(Nc2cc(C3CCN(C4COC4)CC3)n(C3CCCC3)n2)c1
RESULT: 1.7

----------
test system: human MDR1; assay: Efflux ratio of permeability across basolateral to apical over apical to basolateral side in MDCK cells transfected with human MDR1 at 5 uM by LC-MS/MS analysis; details: dog
Assay metric: efflux ratio at 5 µM

N#Cc1ccnc(Nc2cc(C3CCN(C4COC4)CC3)n(C3CCOC3)n2)c1 (racemic): 7.6

[A] N#Cc1ccnc(Nc2cc(C3CCOC3)n(C3CCCC3)n2)c1 (racemic)
[B] N#Cc1ccnc(Nc2cc(C3CCN(C4COC4)C3)n(C3CCCC3)n2)c1 (racemic)
QUERY: # compare efflux ratio at 5 µM for A vs B ; return the one with the smaller value Field: selected label. Fill in the label of the entry you choose.
RESULT: A
